These data points were gathered from the supplement of paper PMC9170038.

# Tested on: K4 kissing-loop RNA reporter;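 further: bound reporter read as fluorescence of individual clusters on recovered sequencing chips by microscopy, with normalized cluster intensities fitted with a binding model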
# protocol_details: apparent KD of K4 kissing-loop reporter; higher = weaker reporter binding
# measurement_conditions: Eterna round: R107; input ligand: FMN 200 uM
Could you label it met if measured apparent KD of K4 kissing-loop reporter is 200 nM or higher, and not met otherwise?

Decide: apparent KD of K4 kissing-loop reporter of UGACUACAAAGGAAAUAAUCCUAGUGAUGUUAGGAUAUGCUGAUAAGCAGAAGGAACUGAGAUCGAAAGAUCUCAAAUGUAGUCU [FmnAX 26 Mat Inspired #SwitchBubble #StaticStem #K4Early] >= 200 nM?
not met

Does AAGUGAUGUUGUAGUGAUGUUGUGAUGUUGCAGGAUAUAUAGUGAUGUAGAAGGGUAUGUGCAGUUUUAUUUUUUGAGUGUUGAU [ttytmullin] have a reported apparent KD of K4 kissing-loop reporter of at least 200 nM?
not met

# check: apparent KD of K4 kissing-loop reporter of GGAUAGGACAGAGGAUAUCUCUGAGGCAAGAAAACUUGUCUCUAAGGAGAUGACUCAGUGAUGUUGAGAGAAGGCUGUCCUAUCG [FmnBX 12 - #SwitchBubble #StaticStem] is greater than or equal to 200 nM
met

Given CCAUCGCUAUUCGAUACCAGCUACUUAGUGAUGUUAAGUUUUUAUCCACUGUAGGUGGAAAGCCCUUGGCAGCGAAUAGUGAUGG [Theophylline B K4 26] , state whether its apparent KD of K4 kissing-loop reporter is at least 200 nM.
met
